Test system: NF-κB
method: NF-κB assay: THP1-NF-κB-LUC cells, LPS-stimulated secreted luciferase
Type: cell-based
conditionContext: THP1-NF-κB-LUC cells; compounds 2 hours before LPS (10 ng/mL) for 18 hours; secreted luciferase; read-out: IC50 (NF-κB assay)
pIC50: −log10 of the molar value.
reportedProperty: pIC50

Look over these answered cases.
CC(C)CC1Oc2cc(S(=O)(=O)Nc3ccc(F)cc3F)c(Br)cc2NC1=O (stereo not drawn) [BC19770]	6.00 to 7.00
N#Cc1cccc(S(=O)(=O)c2c[nH]c3cc(C#N)ccc3c2=O)c1 [BC18310]	> 7.00
CCc1ccc(NS(=O)(=O)c2cc(Br)cc3c2OC(CC)C(=O)N3C)cc1 (stereo not drawn) [BC19931]	> 7.00
CCC1Oc2c(cc(Br)cc2S(=O)(=O)NC2CCC(C(C)(C)C)CC2)NC1=O (stereo not drawn) [BC19379]	< 5.00
CCC1Oc2cc(S(=O)(=O)NCCc3ccc(OC(F)(F)F)cc3)c(Br)cc2NC1=O (stereo not drawn) [BC19373]	< 5.00
Cc1ccc(NS(=O)(=O)c2cc(Cl)cc3c2OC(C)C(=O)N3)cc1 (stereo not drawn) [BC19718]	> 7.00

Note to self: pIC50 recorded for CCS(=O)(=O)c1cc2c(c(S(=O)(=O)Nc3ccc(C)cc3)c1)OCC(=O)N2 [BC19546] was > 7.00

For reference, reported pIC50 for Cc1cc2c(cc1S(=O)(=O)Nc1ccc(CCC(=O)O)cc1)OCC(=O)N2 [BC181300] stands at < 5.00

response.value for CCOc1ccc2[nH]cc(S(=O)(=O)c3ccc(CO)cc3)c(=O)c2c1 [BC18323] (field: pIC50) = 6.00 to 7.00

Briefly, pIC50 measured for CC1Oc2cc(S(=O)(=O)Nc3ccc(F)cc3)c(Cl)cc2NC1=O (stereo not drawn) [BC19721] : > 7.00

// CCNS(=O)(=O)c1cc2c(cc1Cl)NC(=O)C(C)O2 (stereo not drawn) [BC19209] : pIC50 value = 5.00 to 6.00

According to the records, this compound COc1ccc(NS(=O)(=O)c2cc3c(cc2Br)N(C)C(=O)C(C)O3)cc1 (stereo not drawn) [BC19795] displays pIC50 of < 5.00

GET /value?item= CC1Oc2c(cc(Br)cc2S(=O)(=O)Nc2ccccc2)N(C)C1=O (stereo not drawn) [BC19789] &field=pIC50 returns > 7.00

Reported pIC50 ( O=c1[nH]ccc2cc([S+]([O-])c3cccc(F)c3)ccc12 (stereo not drawn) [BC19519] ) = < 5.00

Notebook: CCC1Oc2c(cc(Br)cc2S(=O)(=O)Nc2cccc(F)c2)NC1=O (stereo not drawn) [BC19231] , pIC50 read as > 7.00

pIC50 in this record for CC(C)(C)C1CCC(NS(=O)(=O)c2cc(Br)cc3c2OCC(=O)N3)CC1 (stereo not drawn) [BC19380] : < 5.00

Documented pIC50 of CCNS(=O)(=O)c1cc(Cl)cc2c1OC(C)C(=O)N2 (stereo not drawn) [BC19294] : 5.00 to 6.00

Record CCC1Oc2cc(S(=O)(=O)Nc3ccc(C)cc3)c(Cl)cc2NC1=O (stereo not drawn) [BC19753] , field pIC50: > 7.00

The measured pIC50 associated with CCOc1ccc(NS(=O)(=O)c2cc(Br)cc3c2OCC(=O)N3)cc1 [BC19173] reads > 7.00

// field: pIC50; key: O=C1COc2cc(S(=O)(=O)Nc3ccc(OC(F)(F)F)cc3)c(Cl)cc2N1 [BC19164] ; value = > 7.00

Just so you know, measured pIC50 for CCc1ccc(NS(=O)(=O)c2cc3c(cc2Br)NC(=O)C(CC(C)C)O3)cc1 (stereo not drawn) [BC19764] came out at 5.00 to 6.00

Summary for this compound, O=c1c(S(=O)(=O)c2ccc(F)c(F)c2)cnc2ccccn12 [BC19257] : pIC50 is < 5.00
